# Tested on: Molm13
# protocol-notes: cell viability relative to DMSO control (bortezomib = 0%); higher = less growth inhibition
# conditions: 10 nM; 72 h
measured-property: cell viability (%)
Use % as the unit, but write only the number.

# annotated cases, reported cell viability shown
cell viability of `FC(F)(F)c1ccc(CNc2ccc(Cc3c[nH]c4ncccc34)cn2)cc1` , assay on Molm13, is 76.9

cell viability of `CS(=O)(=O)CCNCc1ccc(-c2ccc3ncnc(Nc4ccc(OCc5cccc(F)c5)c(Cl)c4)c3c2)o1` , assay on Molm13, is 103

cell viability of `CC1(C)CC[C@]2(C(=O)O)CC[C@]3(C)C(=CC[C@@H]4[C@@]5(C)CC[C@H](O[C@@H]6O[C@H](C(=O)O)[C@@H](O)[C@H](O[C@@H]7OC[C@@H](O)[C@H](O)[C@H]7O)[C@H]6O)C(C)(C)[C@@H]5CC[C@]43C)[C@@H]2C1` , assay on Molm13, is 87.4

cell viability of `Cc1cn(-c2cc(NC(=O)c3ccc(C)c(Nc4nccc(-c5cnccn5)n4)c3)cc(C(F)(F)F)c2)cn1` , assay on Molm13, is 100

cell viability of `CN1C/C=C/CCOc2cccc(c2)-c2ccnc(n2)Nc2cccc(c2)C1` , assay on Molm13, is 86.8

New cases:
cell viability of `CC1(C)C=Cc2c(ccc3c2OC[C@@H](c2ccc(O)cc2O)C3)O1` , assay on Molm13, is 100

cell viability of `C[C@@H](Oc1cc(-c2cnn(C3CCNCC3)c2)cnc1N)c1c(Cl)ccc(F)c1Cl` , assay on Molm13, is 107
